Test system: TK-10 renal
assay: NCI-60 one-dose screen, 48 h (100 = growth as untreated, 0 = no growth, -100 = all killed)
experimental_parameters: 10 µM unless noted
Compounds without any hit were thinned out: in the full panel of roughly 83,000, 20% have a hit. The source made the active and inactive calls. How the source made its calls: active means growth percent below 10; inactive means the rest.
quantity_kind: growth

Task: Entry `COc1ccc(-c2cnoc2-c2ccc(OC)cc2O)cc1` : reported growth = ?
Output: 86.9% (inactive)

Task: Entry `O=C(O)c1cn(C2CC2)c2cc(N3CCN(C(=O)/C=C/c4ccc(Cl)cc4)CC3)c(F)cc2c1=O` please
Output: 105% (inactive)

Task: Next compound up: C=C1CCC2C3(C)COC(c4ccc(N(C)C)cc4)OC3CCC2(C)C1C/C=C1/C(=O)OCC1O (stereo unspecified)
Output: 94.3% (inactive)

----------
Tested on: HCC-2998 colon
assay: NCI-60 one-dose screen, 48 h
experimental_parameters: 10 µM unless noted
About 83,000 compounds went through this panel and 20% of them were active in at least one assay; those are over-represented in the sample as a whole. Activity calls are given as the source filed them. How the source made its calls: active means growth percent below 10; inactive means the rest.
Pick from active, inactive when you respond.

These solved cases illustrate the format of a correct answer.
Task: Tell me the assay call for CC(NNC(C)c1ccccc1)c1ccccc1 (centres undefined) please.
Output: inactive

Task: Next entry: `COc1ccc(-c2nc(/C=N/Nc3cc(C)nc4ccc(Br)cc34)c(C)o2)cc1`
Output: active

Task: Same question for `O=C(CN1CCN(c2cc3c(cc2F)c(=O)c(C(=O)N/N=C/c2ccccc2O)cn3C2CC2)CC1)N/N=C\c1ccccc1O` please.
Output: inactive

Task: Would you kindly repeat that for COc1ccc(/C=C2/C(=O)NC(SCC(=O)N3CCN(c4cc5c(cc4F)c(=O)c(C(=O)O)cn5C4CC4)CC3)=NC2N)cc1OC (centres undefined) ?
Output: inactive

Further cases:
Task: Call for entry `COc1ccc(-c2c(-c3cc(OC)c4c(c3)OCO4)noc2N)cc1` :
Output: inactive

Task: Same read-out for `N=C(N)c1ccc(-c2ccc(-c3ccc(-c4cccs4)s3)s2)cc1` ?
Output: inactive

----------
Tested on: IGROV1 ovarian
assay: NCI-60 one-dose screen, 48 h (100 = growth as untreated, 0 = no growth, -100 = all killed)
experimental_parameters: 10 µM unless noted
About 83,000 compounds went through this panel and 20% of them were active in at least one assay; those are over-represented in the sample as a whole.
Parameter: growth. Scope: all listed entries.
Give the quantity in %, number only.

Task: Which growth is reported for this compound? CCO/C=N/C1=C(C#N)C(c2ccc(Cl)cc2)c2c(c3ccc(C)cc3[nH]c2=O)O1 (centres undefined)
Output: 68.4

Task: Now consider `O=c1c2sc3ncccc3c2nnn1-c1ccccc1` .
Output: 106

Task: And the next one, Cc1ccc2[nH]c(=O)c3c(c2c1)Oc1ncn2nc(-c4ccco4)nc2c1C3c1ccc(Cl)cc1 (centres undefined) ?
Output: 98

Task: Next: CCN(CC)CCCC(C)Nc1c2ccc(Cl)cc2nc2cc(OC)c(OC)cc12 (centres undefined)
Output: 24.3

Task: Further, for `Brc1ccc(-c2[nH]ncc2-c2c[nH]c3ccccc23)cc1` ?
Output: 91.1

Task: Would you kindly repeat that for `O=C(NCCCNc1nccc(-n2ccc3cccnc32)n1)c1c(F)cccc1F` ?
Output: 97.6

Task: Now the compound `O=C(c1ccccc1)c1c(/C=C/c2ccccc2)c2ccccc2[nH]c1=O`
Output: 95.4

Task: Another: `COc1cc(-c2nn(-c3cccc(NC(=O)Nc4ccc(Cl)c(C(F)(F)F)c4)c3)cc2-c2ccncc2)ccc1Cl`
Output: 25.6

Task: Likewise for `COC(=O)[C@]12CC[C@@H](C)[C@H](C)[C@@H]1C1=CC[C@@H]3[C@@]4(C)C(C=O)=C[C@@](C)(COC(=O)c5ccco5)[C@@H]4[C@H](O)C[C@@]3(C)[C@]1(C)CC2` ?
Output: 5.24

----------
Tested on: SW-620 colon
assay: NCI-60 one-dose screen, 48 h (100 = growth as untreated, 0 = no growth, -100 = all killed)
experimental_parameters: 10 µM unless noted
About 83,000 compounds went through this panel and 20% of them were active in at least one assay; those are over-represented in the sample as a whole. Active and inactive are the calls of the source. How the source made its calls: active means growth percent below 10; inactive means the rest.
quantity_kind: growth

Task: I am curious: what growth value has been reported for `C=C1c2nc3ccccc3n2C=C(c2ccc(Cl)cc2)N1Cc1ccccc1` ?
Output: 86.9% (inactive)

----------
System: LOX IMVI melanoma
assay: NCI-60 one-dose screen, 48 h
experimental_parameters: 10 µM unless noted
This is part of a sample that, as a whole, favours compounds with a hit. Of some 83,000 tested, about 20% had one in any assay. Activity calls are given as the source filed them. The calls were made as follows: active = growth percent below 10; inactive = the rest.
Hi there, use one of these labels in your reply, thanks! Y (active), N (inactive)

Task: What classification did `COC(=O)[C@]12CC[C@@H](C)[C@H](C)[C@@H]1C1=CC[C@@H]3[C@@]4(C)C(C=O)=C[C@@](C)(COC(=O)c5ccco5)[C@@H]4[C@H](O)C[C@@]3(C)[C@]1(C)CC2` end up with in this test?
Output: Y

---
Task: Tell me the assay call for `O=c1cc(Cc2ccc([N+](=O)[O-])cc2)[nH]c(=O)[nH]1` please.
Output: N

Task: Next: `CCCCN(CCCC)C(=O)CC`
Output: N

Task: What would you report for `O=C([O][Sn]([O]C(=O)c1ccccn1)([c]1ccccc1)[c]1ccccc1)c1ccccn1` ?
Output: N

Task: Repeat for the following molecule: `Cc1cc(N)n(S(=O)(=O)c2oc(-c3ccccc3)nc2C#N)n1`
Output: N

Task: Now consider `O=C(Nc1ccc2c(c1)OCO2)C(=O)c1c[nH]c2cc(F)ccc12` and answer again.
Output: Y

Task: // next record `COc1ccc(-c2cc(-c3ccccc3)nc(SCCCC(=O)NO)n2)cc1OC`
Output: Y

Task: Now give it for `O=Nc1c(-c2cccc([N+](=O)[O-])c2)nc2ncccn12` too.
Output: N

Task: Entry to check: `CCCC(=O)Oc1ccc(/C(=C(\C)c2ccccc2)c2ccc(OCCN(CC)CC)cc2)cc1`
Output: N

----------
// reported growth per item
System: EKVX NSCLC
assay: NCI-60 one-dose screen, 48 h (100 = growth as untreated, 0 = no growth, -100 = all killed)
experimental_parameters: 10 µM unless noted
The panel holds about 83,000 compounds, 20% with a hit somewhere; the sample as a whole holds those more often.
Give your result in % as a bare value.

Task: Recorded growth for `O=C([O][Sn]([O]C(=O)c1ccccn1)([c]1ccccc1)[c]1ccccc1)c1ccccn1` , please?
Output: 92.2

Task: // next record CCOC(=O)C1C(=O)C=C(c2ccc(OC)cc2)CC1c1sc(N(C)Cc2ccccc2)nc1Cl (stereo not given)
Output: 82.4

Task: Subsequent entry: `CCN1CCN(CC(=O)N2c3cccc4cccc(c34)N(C(=O)CN3CCN(CC)CC3)C2c2cn(-c3ccccc3)nc2-c2cccc([N+](=O)[O-])c2)CC1`
Output: 36.5

Task: `COc1ccc(-c2cc(-c3ccccc3)nc(SCCCC(=O)NO)n2)cc1OC` , same question.
Output: 8.24

Task: Moving on to the next compound: `CC(C)(C)OC(=O)NCCc1ccc(N=C=S)cc1`
Output: 89.7

----------
System: IGROV1 ovarian
assay: NCI-60 one-dose screen, 48 h
experimental_parameters: 10 µM unless noted
The panel holds about 83,000 compounds, 20% with a hit somewhere; the sample as a whole holds those more often. Activity calls are given as the source filed them. How the source made its calls: active means growth percent below 10; inactive means the rest.
# output must be one of active, inactive

Task: Each compound tested received a call. Report the one for `CCCCOc1ccc(/C=C2/SC(N3CCOCC3)=NC2=O)cc1OCC` .
Output: inactive

Task: Another compound to look at: `COc1ccc(-c2ccc(-c3ccc(-c4ccc(C(=N)N)cc4)s3)s2)cc1OC`
Output: inactive

Task: Same question for `COc1ccc2c(c1)[nH]c(=O)c1c3cccc(F)c3cn21` please.
Output: active

Further cases:
Task: Which outcome was assigned to `COc1cccc(CC(C)=C(c2ccc(OCCN3CCCCC3)cc2)c2ccc(OCCN3CCCCC3)cc2)c1` in this test?
Output: active

Task: Entry `O=C1NC(=C(Cl)Cl)/C(=N/S(=O)(=O)N2CCC(C3(C(F)(F)F)N=N3)CC2)N1` please
Output: inactive

Task: Follow-up item: `Cc1cc(C)n(-c2nnc3n2N=C(c2ccc(-c4ccccc4)cc2)CS3)n1`
Output: inactive

Task: Same lookup for `O=C(Nc1cccc(-n2cc(-c3ccncc3)c(-c3ccc(Cl)c(O)c3)n2)c1)Nc1cccc(C(F)(F)F)c1` , please.
Output: inactive

Task: Repeat for the following compound: `Cn1c2ccc(Br)cc2c2c3c(c4c5ccccc5[nH]c4c21)C(=O)N(O)C3=O`
Output: active

Task: Same thing, different compound: `C=C1C(=O)O[C@H]2[C@H]1CC/C(Cn1cc(CNC(=O)/C=C/c3c[nH]c4ccccc34)nn1)=C\CC[C@@]1(C)O[C@@H]21`
Output: inactive

Task: Then this compound: CCOC(=O)c1ccc(NC(=O)N2CC(C)OC(C)C2)cc1 (centres undefined)
Output: inactive

Task: Same question for `CN1CCN(Cc2ccc(NC(=O)c3cncc(C#Cc4cnc(N)c5ccncc45)c3)cc2C(F)(F)F)CC1` please.
Output: active

Task: And `COc1cc(-c2nn(-c3cccc(NC(=O)c4cccc(C(F)(F)F)c4)c3)cc2-c2ccncc2)ccc1Cl` ?
Output: inactive

Task: Would you kindly repeat that for `CCOC(=O)c1ccc2c(c1)nc(-c1ccc(OCc3ccccc3)c(OC)c1)n2-c1cc(C(C)(C)C)[nH]n1` ?
Output: inactive

Task: Note, next up: `C=C[C@@H]1C[C@@H]2Cc3ccccc3N1O2`
Output: inactive

Task: Quick one: `Cc1cc(C2(c3cc(C)c(O)cc3C)OS(=O)(=O)c3ccccc32)c(C)cc1O`
Output: inactive

Task: Next compound up: O=C1C2(c3ccccc3)C(c3ccccc3)=C(c3ccccc3)C1(c1ccccc1)C1CC=CC12 (centres undefined)
Output: inactive

Reference source: PubChem BioAssay (NCI)
